Data provenance is ChEMBL document CHEMBL3217621.

Hi! I'm sharing some pIC50 results obtained with Matrix metalloproteinase-9 (Homo sapiens, UniProt P14780).
Sequence (P14780 whole entry): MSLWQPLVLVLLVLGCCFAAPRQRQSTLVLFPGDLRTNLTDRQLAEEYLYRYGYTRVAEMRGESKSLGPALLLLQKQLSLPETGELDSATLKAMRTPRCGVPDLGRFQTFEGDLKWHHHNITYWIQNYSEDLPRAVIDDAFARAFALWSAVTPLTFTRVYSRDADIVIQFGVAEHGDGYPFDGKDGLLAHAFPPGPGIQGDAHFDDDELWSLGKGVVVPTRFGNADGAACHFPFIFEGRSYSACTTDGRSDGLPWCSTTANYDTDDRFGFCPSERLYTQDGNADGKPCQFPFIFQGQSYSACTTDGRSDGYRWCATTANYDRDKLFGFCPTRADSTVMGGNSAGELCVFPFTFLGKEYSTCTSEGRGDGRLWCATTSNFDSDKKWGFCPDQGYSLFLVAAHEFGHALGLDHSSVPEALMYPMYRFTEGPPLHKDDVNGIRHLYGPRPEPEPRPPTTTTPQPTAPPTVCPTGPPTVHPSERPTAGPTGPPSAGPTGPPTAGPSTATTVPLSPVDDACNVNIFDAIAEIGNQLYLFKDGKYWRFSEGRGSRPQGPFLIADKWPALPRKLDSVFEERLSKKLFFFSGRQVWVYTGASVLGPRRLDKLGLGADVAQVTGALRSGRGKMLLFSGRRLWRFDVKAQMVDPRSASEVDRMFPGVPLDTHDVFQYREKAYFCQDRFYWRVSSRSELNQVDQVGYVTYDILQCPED
pIC50: −log10 of the molar value.
Observed Property: pIC50

(a) CC1(C)OC[C@H](CC(CS(=O)(=O)c2ccc(Oc3ccc(OC(F)(F)F)cc3)cc2)N(O)C=O)O1 (some centres not stated)
(b) O=CN(O)C(Cc1ccc(C(=O)O)cc1)CS(=O)(=O)c1ccc(Oc2ccc(OC(F)(F)F)cc2)cc1 (configuration not stated)
Prompt: Out of a and b , name the one with the higher pIC50. Pick one and reply with its label.
Completion: b
(b: 9.28, a: 8.26)

---

target: Aromatase (Homo sapiens, UniProt P11511)
Sequence (P11511 whole entry): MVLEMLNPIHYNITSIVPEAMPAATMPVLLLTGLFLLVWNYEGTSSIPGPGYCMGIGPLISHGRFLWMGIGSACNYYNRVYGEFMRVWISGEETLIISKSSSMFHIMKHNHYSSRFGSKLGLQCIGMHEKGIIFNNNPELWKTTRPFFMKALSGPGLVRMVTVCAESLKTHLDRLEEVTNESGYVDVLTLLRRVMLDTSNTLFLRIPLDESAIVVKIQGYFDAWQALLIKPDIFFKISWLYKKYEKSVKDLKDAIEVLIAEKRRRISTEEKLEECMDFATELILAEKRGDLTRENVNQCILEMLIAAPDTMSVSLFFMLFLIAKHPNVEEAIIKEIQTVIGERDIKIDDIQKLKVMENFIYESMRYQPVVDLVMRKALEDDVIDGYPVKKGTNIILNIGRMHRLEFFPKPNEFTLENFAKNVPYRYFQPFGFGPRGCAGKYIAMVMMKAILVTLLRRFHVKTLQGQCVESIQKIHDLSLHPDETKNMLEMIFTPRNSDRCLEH
Observed Property: IC50 (µM)
Answer format: numeric, µM implied, no suffix.

Prompt: Name the value of IC50 reported for `Cc1cc(O)cc2c1Oc1cc(O)cc(C)c1C(=O)O2` when tested on Aromatase (Homo sapiens, UniProt P11511).
Completion: 5.3
